Reference source for all entries: PubChem BioAssay (NCI)

Reported growth is given for each of the following molecules.
Tested on: SK-MEL-5 melanoma
Assay Explanation: NCI-60 one-dose screen, 48 h (100 = growth as untreated, 0 = no growth, -100 = all killed)
Cond: 10 µM
This is part of a sample that, as a whole, favours compounds with a hit. Of some 83,000 tested, about 20% had one in any assay.
Recorded Metric: growth (%)

>  <Molecule>
COc1ccc2nc(NC(=O)Nc3c(F)cccc3F)sc2c1

>  <Unit Of Measurement>
%

>  <Number>
91.2

$$$$
>  <Molecule>
CCCOCC(O)CNCCN (configuration not stated)

>  <Unit Of Measurement>
%

>  <Number>
106

$$$$
>  <Molecule>
Cc1cc(=O)oc2cc(OCc3cn(CC(O)CO)nn3)ccc12 (configuration not stated)

>  <Unit Of Measurement>
%

>  <Number>
25.5

$$$$
>  <Molecule>
COc1cc(/C=C/C(=O)c2cc(-c3ccccc3)ccc2O)cc(OC)c1OC

>  <Unit Of Measurement>
%

>  <Number>
51.8

$$$$
>  <Molecule>
[O-]c1c[n+](-c2ccc(Cl)cc2)no1

>  <Unit Of Measurement>
%

>  <Number>
95.6

$$$$
>  <Molecule>
CCCCCCCCCCCCCC[n+]1ccccc1

>  <Unit Of Measurement>
%

>  <Number>
-95.3

$$$$
>  <Molecule>
CC(C)c1[nH]nc2c(NCc3ccc(-c4ccccn4)cc3)nc(SCCN)nc12

>  <Unit Of Measurement>
%

>  <Number>
-38.6

$$$$
>  <Molecule>
O=C(Nc1cccc(Cl)c1)Nc1cc2ncncc2cc1OCc1cccc(F)c1

>  <Unit Of Measurement>
%

>  <Number>
-88.5

$$$$
>  <Molecule>
N#C/C(=C\N1C(=O)/C(=C/c2cccc([N+](=O)[O-])c2)SC1=S)c1nc2ccccc2s1

>  <Unit Of Measurement>
%

>  <Number>
64.6

$$$$
>  <Molecule>
CC1(C)CC(OCCCC[P+](c2ccccc2)(c2ccccc2)c2ccccc2)CC(C)(C)N1O

>  <Unit Of Measurement>
%

>  <Number>
-98.4

$$$$
>  <Molecule>
CCC1(C)OC(=O)NC1=O (configuration not stated)

>  <Unit Of Measurement>
%

>  <Number>
98.2

$$$$
>  <Molecule>
CCOC(=O)Nc1ccc2c(c1)C(=O)N(CCOC)c1ccccc1O2

>  <Unit Of Measurement>
%

>  <Number>
12.3

$$$$
>  <Molecule>
CCC(OC(=O)CC(C)C)c1ccccc1 (configuration not stated)

>  <Unit Of Measurement>
%

>  <Number>
100

$$$$
>  <Molecule>
CCCCn1c(=O)[nH]c(N)c(C(c2ccc(Cl)cc2)c2c(N)[nH]c(=O)n(CCCC)c2=O)c1=O

>  <Unit Of Measurement>
%

>  <Number>
-11.3

$$$$
>  <Molecule>
COc1ccc(C(=O)n2nc(CC(=O)NCc3ccccc3)nc2N)cc1

>  <Unit Of Measurement>
%

>  <Number>
111

$$$$
>  <Molecule>
COc1cccc2c1O/C(=C\c1ncc([N+](=O)[O-])n1C)C2=O

>  <Unit Of Measurement>
%

>  <Number>
-92.4

$$$$
>  <Molecule>
CCN(CC)CCCOC(=O)Nc1ccccc1Cl

>  <Unit Of Measurement>
%

>  <Number>
105

$$$$
>  <Molecule>
COc1cccc(C2(C)Nc3ccccc3-c3nc4ccccc4n32)c1 (configuration not stated)

>  <Unit Of Measurement>
%

>  <Number>
101

$$$$
>  <Molecule>
COc1nc2c(c(=O)[nH]1)C(c1ccc(Oc3ccnc4cc(Cl)ccc34)c(OC)c1)C=C(c1cc(OC)c(OC)c(OC)c1)N2 (configuration not stated)

>  <Unit Of Measurement>
%

>  <Number>
95.1

$$$$
>  <Molecule>
CC1=CC2OC34COC3CC(OC(=O)C(F)(F)F)C4(C)C2(C)CC1 (configuration not stated)

>  <Unit Of Measurement>
%

>  <Number>
97.4

$$$$
>  <Molecule>
O=C1/C(=C/c2cccs2)CCC/C1=C\c1cccs1

>  <Unit Of Measurement>
%

>  <Number>
83

$$$$
>  <Molecule>
N=C(N)c1ccc(-c2ccc(-c3ccccc3)s2)s1

>  <Unit Of Measurement>
%

>  <Number>
14.5

$$$$
>  <Molecule>
COc1ccc(/C=C(\c2cc(OC)c(OC)c(OC)c2)c2nnc(-c3cccs3)o2)cc1

>  <Unit Of Measurement>
%

>  <Number>
64.6

$$$$
>  <Molecule>
CCNC1(NC#N)CCCCC1

>  <Unit Of Measurement>
%

>  <Number>
96.8

$$$$
>  <Molecule>
O=c1oc2cc(OS(=O)(=O)C3CC3)ccc2c2c1CCCCCC2

>  <Unit Of Measurement>
%

>  <Number>
37.3

$$$$
>  <Molecule>
CCOC(=O)[C@@H]1[C@H](c2ccccc2)[C@H]([N+](=O)[O-])[C@H](c2cn(-c3ccccc3)nc2C)N1Cc1ccccc1

>  <Unit Of Measurement>
%

>  <Number>
76.3

$$$$
>  <Molecule>
O=[N+]([O-])c1ccc(-c2nc(Cl)c3c(n2)CCCC3)o1

>  <Unit Of Measurement>
%

>  <Number>
47.3

$$$$

###

Tested on: MDA-MB-435 melanoma
Assay Explanation: NCI-60 one-dose screen, 48 h (100 = growth as untreated, 0 = no growth, -100 = all killed)
Cond: 10 µM
Compounds without any hit were thinned out: in the full panel of roughly 83,000, 20% have a hit.
growth values by entry

>  <Compound>
COc1ccc(C(=O)/C=C/c2cc(-c3ccc(OC)c(OC)c3)n[nH]2)cc1OC

>  <System Tested>
MDA-MB-435 melanoma

>  <growth / %>
-33.1

$$$$
>  <Compound>
O=C(O)CCCN1C(=O)NC2(C1=O)c1ccccc1-c1ccccc12

>  <System Tested>
MDA-MB-435 melanoma

>  <growth / %>
103

$$$$
>  <Compound>
O=[N+]([O-])c1ccc(S(=O)(=O)OCCCCOS(=O)(=O)c2ccc([N+](=O)[O-])cc2)cc1

>  <System Tested>
MDA-MB-435 melanoma

>  <growth / %>
95.1

$$$$
>  <Compound>
Nc1ccc2c(c1)Cc1cc(N)c(Cl)cc1-2

>  <System Tested>
MDA-MB-435 melanoma

>  <growth / %>
94.3

$$$$
>  <Compound>
O=C(NC1CCN(Cc2ccccc2)CC1)c1cc(-c2ccncc2)nc2ccc(Cl)cc12

>  <System Tested>
MDA-MB-435 melanoma

>  <growth / %>
28

$$$$
>  <Compound>
O=C(COCc1c(-c2ccccc2)no[n+]1[O-])Nc1nc(-c2ccc(Cl)cc2)cs1

>  <System Tested>
MDA-MB-435 melanoma

>  <growth / %>
111

$$$$
>  <Compound>
COc1nc2c(c(=O)[nH]1)C(c1ccc(Oc3ccnc4cc(Cl)ccc34)c(OC)c1)C=C(c1cc(OC)c(OC)c(OC)c1)N2 (centres undefined)

>  <System Tested>
MDA-MB-435 melanoma

>  <growth / %>
111

$$$$
>  <Compound>
COc1ccc(Cn2cc3c(c2-c2cc(OC)c(OC)c(OC)c2)CCc2cnoc2-3)cc1N

>  <System Tested>
MDA-MB-435 melanoma

>  <growth / %>
-37

$$$$
>  <Compound>
CCOc1nc(-c2ccccc2)cc2c(O)c(C(=O)NC(C)C)[nH]c(=O)c12

>  <System Tested>
MDA-MB-435 melanoma

>  <growth / %>
105

$$$$

###

System: SF-295 CNS
Assay Explanation: NCI-60 one-dose screen, 48 h (100 = growth as untreated, 0 = no growth, -100 = all killed)
Cond: 10 µM
Compounds without any hit were thinned out: in the full panel of roughly 83,000, 20% have a hit.
Criterion: growth strictly under 80%. Met: t. Not met: f.

>  <Compound>
COc1cccc(C(=O)NNc2nc(N3CCN(C4CCCCC4)CC3)nc(N3CCN(C(c4ccccc4)c4ccccc4)CC3)n2)c1

>  <System Tested>
SF-295 CNS

>  <Category>
t

$$$$
>  <Compound>
COCCNCC(O)Cn1c2ccc(Cl)cc2c2cc(Cl)ccc21 (stereo not given)

>  <System Tested>
SF-295 CNS

>  <Category>
t

$$$$
>  <Compound>
COc1ccc(C(=O)/C=C/c2cc(-c3ccc(OC)c(OC)c3)n[nH]2)cc1OC

>  <System Tested>
SF-295 CNS

>  <Category>
t

$$$$
>  <Compound>
COc1ccc(-c2csc(-c3cc(Cl)cc(Cl)c3Cl)n2)cc1

>  <System Tested>
SF-295 CNS

>  <Category>
f

$$$$
>  <Compound>
CS(=O)(=O)Nc1ccc(Nc2c3ccccc3nc3cc(Cl)ccc23)cc1

>  <System Tested>
SF-295 CNS

>  <Category>
t

$$$$
>  <Compound>
COc1cc(-c2nc3ccc(C)cc3[nH]2)ccc1OCc1nnc(-c2ccc(CC(C)C)cc2)o1

>  <System Tested>
SF-295 CNS

>  <Category>
f

$$$$
>  <Compound>
Nc1cc2c(cc1Cl)-c1ccc(Cl)cc1C2=O

>  <System Tested>
SF-295 CNS

>  <Category>
f

$$$$
>  <Compound>
COc1ccc(-c2nc(-c3nc4ccc(C)cc4[nH]3)c3ccccn23)cc1

>  <System Tested>
SF-295 CNS

>  <Category>
t

$$$$
>  <Compound>
Cn1cnc([N+](=O)[O-])c1/C=C1\Oc2ccc(Cl)cc2C1=O

>  <System Tested>
SF-295 CNS

>  <Category>
f

$$$$
